B1: CDC25A (parent)
chain: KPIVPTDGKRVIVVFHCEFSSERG

Variants of: B1
MEASUREMENT PROTOCOL: protein stability index of a GFP-peptide fusion (GPS, HEK-293T) (PSI 1-6); higher = more stable;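 also: lentivirally expressed fusions sorted by FACS into six bins by GFP to DsRed ratio, PSI derived from sequencing read proportions per bin multiplied by bin number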
MEASUREMENT CONDITIONS: c terminus: a fixed tail appended
# label = true if protein stability index >= 2 else false

[
  {
    "MUTANT ID": "I12K",
    "QUALITATIVE LABEL": "true"
  },
  {
    "MUTANT ID": "V11G",
    "QUALITATIVE LABEL": "true"
  },
  {
    "MUTANT ID": "V4L",
    "QUALITATIVE LABEL": "true"
  },
  {
    "MUTANT ID": "E22Y",
    "QUALITATIVE LABEL": "true"
  },
  {
    "MUTANT ID": "C17H",
    "QUALITATIVE LABEL": "false"
  },
  {
    "MUTANT ID": "F19K",
    "QUALITATIVE LABEL": "true"
  },
  {
    "MUTANT ID": "V11Y",
    "QUALITATIVE LABEL": "true"
  },
  {
    "MUTANT ID": "C17Y",
    "QUALITATIVE LABEL": "true"
  },
  {
    "MUTANT ID": "H16Y",
    "QUALITATIVE LABEL": "true"
  },
  {
    "MUTANT ID": "K1R",
    "QUALITATIVE LABEL": "true"
  },
  {
    "MUTANT ID": "V13Y",
    "QUALITATIVE LABEL": "true"
  },
  {
    "MUTANT ID": "G24K",
    "QUALITATIVE LABEL": "false"
  },
  {
    "MUTANT ID": "V4G",
    "QUALITATIVE LABEL": "true"
  },
  {
    "MUTANT ID": "R10F",
    "QUALITATIVE LABEL": "true"
  },
  {
    "MUTANT ID": "K9C",
    "QUALITATIVE LABEL": "true"
  },
  {
    "MUTANT ID": "R10S",
    "QUALITATIVE LABEL": "true"
  },
  {
    "MUTANT ID": "G8K",
    "QUALITATIVE LABEL": "false"
  },
  {
    "MUTANT ID": "P5T",
    "QUALITATIVE LABEL": "false"
  },
  {
    "MUTANT ID": "S21R",
    "QUALITATIVE LABEL": "false"
  },
  {
    "MUTANT ID": "V13Q",
    "QUALITATIVE LABEL": "true"
  },
  {
    "MUTANT ID": "V4E",
    "QUALITATIVE LABEL": "false"
  },
  {
    "MUTANT ID": "S20Y",
    "QUALITATIVE LABEL": "true"
  }
]

# credit: the supplement of paper PMC10567573
